Entry source: paper PMC5035790

# Run Description: Plasma pharmacokinetics of copanlisib
# Type: in vivo, human
# Test Context: human, plasma, intravenous, 0.1 mg/kg, AUC(0–25), cycle 1 day 1; cohort 1, 0.1 mg/kg, n=1; individual data
Measurement Label: AUC(0-t)

> print(dat)
                                   compound  value.observed
1  COc1c(OCCCN2CCOCC2)ccc2c1N=C(NC(=O)c1cnc(N)nc1)N1CCN=C21 [copanlisib, Copanlisib]    0.17 µg·h/mL

---

# Run Description: Plasma pharmacokinetics of copanlisib
# Type: in vivo, human
# Test Context: human, plasma, intravenous, 0.8 mg/kg
Measurement Label: concentration at 8 day of cycle 1 (ng/mL)

> print(dat)
                                smiles.code  measure.unit  value.observed
1  COc1c(OCCCN2CCOCC2)ccc2c1N=C(NC(=O)c1cnc(N)nc1)N1CCN=C21         ng/mL            4.92

---

# Run Description: Plasma pharmacokinetics of copanlisib
# Format: in vivo, human
# Test Context: human, plasma, intravenous, 1.2 mg/kg, Cmax, cycle 1 day 1; cohort 5, 1.2 mg/kg, n=2; range
Measurement Label: Cmax

> print(dat)
                                smiles.code  measurement.label    value.observed
1  COc1c(OCCCN2CCOCC2)ccc2c1N=C(NC(=O)c1cnc(N)nc1)N1CCN=C21               Cmax  616 to 739 ng/mL

---

# Run Description: Plasma pharmacokinetics of copanlisib
# Assay type: in vivo, human
# Test Context: human, plasma, intravenous, 0.8 mg/kg, AUC(0–tlast), cycle 1 day 1; cohort 4, 0.8 mg/kg, n=7; geometric mean (%CV)
Measurement Label: AUC(0-t) (µg·h/mL)

> print(dat)
                                smiles.code  measure.unit  value.observed
1  COc1c(OCCCN2CCOCC2)ccc2c1N=C(NC(=O)c1cnc(N)nc1)N1CCN=C21       µg·h/mL            2.94

---

# Run Description: Plasma pharmacokinetics of copanlisib
# Assay type: in vivo, human
# Test Context: human, plasma, intravenous, 0.8 mg/kg, t1/2, cycle 1 day 1; solid tumors expansion, 0.8 mg/kg, n=16; value (%)
Measurement Label: half-life (h)

> print(dat)
                                smiles.code  value.observed
1  COc1c(OCCCN2CCOCC2)ccc2c1N=C(NC(=O)c1cnc(N)nc1)N1CCN=C21            36.9

---

# Run Description: Plasma pharmacokinetics of copanlisib
# Type: in vivo, human
# Test Context: human, plasma, intravenous, 0.4 mg/kg, AUC(0–tlast), cycle 1 day 1; cohort 3, 0.4 mg/kg, n=2; range
Measurement Label: AUC(0-t)

> print(dat)
                                smiles.code  measurement.label       value.observed
1  COc1c(OCCCN2CCOCC2)ccc2c1N=C(NC(=O)c1cnc(N)nc1)N1CCN=C21           AUC(0-t)  722 to 1450 ng·h/mL

---

# Run Description: Plasma pharmacokinetics of copanlisib
# Assay type: in vivo, human
# Test Context: human, plasma, intravenous, 0.8 mg/kg, AUC(0–25), cycle 1 day 15; NHL expansion, 0.8 mg/kg, n=8; geometric mean (%CV)
Measurement Label: AUC(0-t) (ng·h/mL)

> print(dat)
                                   molecule  value.observed
1  COc1c(OCCCN2CCOCC2)ccc2c1N=C(NC(=O)c1cnc(N)nc1)N1CCN=C21 [copanlisib, Copanlisib]            1760

---

# Run Description: Plasma pharmacokinetics of copanlisib
# Type: in vivo, human
# Test Context: human, plasma, intravenous, 0.8 mg/kg, AUC(0–tlast), cycle 1 day 1; MTD 0.8 mg/kg combined, n=41; geometric mean (%CV)
Measurement Label: AUC(0-t) (ng·h/mL)

> print(dat)
                                   molecule  measurement.label  value.observed
1  COc1c(OCCCN2CCOCC2)ccc2c1N=C(NC(=O)c1cnc(N)nc1)N1CCN=C21 [copanlisib, Copanlisib]           AUC(0-t)            2880

---

# Run Description: Plasma pharmacokinetics of copanlisib
# Type: in vivo, human
# Test Context: human, plasma, intravenous, 0.2 mg/kg, tmax, cycle 1 day 1; cohort 2, 0.2 mg/kg, n=3; value (range)
Measurement Label: Tmax (h)

> print(dat)
                                smiles.code  measurement.label  value.observed
1  COc1c(OCCCN2CCOCC2)ccc2c1N=C(NC(=O)c1cnc(N)nc1)N1CCN=C21               Tmax             1.1

---

# Run Description: Plasma pharmacokinetics of copanlisib
# Assay type: in vivo, human
# Test Context: human, plasma, intravenous, 0.2 mg/kg, Cmax, cycle 1 day 15; cohort 2, 0.2 mg/kg, n=3; geometric mean (%CV)
Measurement Label: Cmax

> print(dat)
                                smiles.code  measurement.label  value.observed
1  COc1c(OCCCN2CCOCC2)ccc2c1N=C(NC(=O)c1cnc(N)nc1)N1CCN=C21               Cmax      89.4 ng/mL

---

# Run Description: Plasma pharmacokinetics of copanlisib
# Type: in vivo, human
# Test Context: human, plasma, intravenous, 0.8 mg/kg, AUC(0–25), cycle 1 day 1; MTD 0.8 mg/kg combined, n=41; geometric mean (%CV)
Measurement Label: AUC(0-t)

> print(dat)
                                smiles.code  value.observed
1  COc1c(OCCCN2CCOCC2)ccc2c1N=C(NC(=O)c1cnc(N)nc1)N1CCN=C21    1590 ng·h/mL

---

# Run Description: Plasma pharmacokinetics of copanlisib
# Format: in vivo, human
# Test Context: human, plasma, intravenous, 0.8 mg/kg, AUC(0–25), cycle 1 day 15; cohort 4, 0.8 mg/kg, n=6; geometric mean (%CV)
Measurement Label: AUC(0-t) (ng·h/mL)

> print(dat)
                                smiles.code  measurement.label  measure.unit  value.observed
1  COc1c(OCCCN2CCOCC2)ccc2c1N=C(NC(=O)c1cnc(N)nc1)N1CCN=C21           AUC(0-t)       ng·h/mL            1480

---

# Run Description: Plasma pharmacokinetics of copanlisib
# Format: in vivo, human
# Test Context: human, plasma, intravenous, 0.4 mg/kg, tmax, cycle 1 day 15; cohort 3, 0.4 mg/kg, n=2; range
Measurement Label: Tmax

> print(dat)
                                smiles.code  value.observed
1  COc1c(OCCCN2CCOCC2)ccc2c1N=C(NC(=O)c1cnc(N)nc1)N1CCN=C21    30 to 66 min

---

# Run Description: Plasma pharmacokinetics of copanlisib
# Assay type: in vivo, human
# Test Context: human, plasma, intravenous, 1.2 mg/kg, AUC(0–tlast), cycle 1 day 1; cohort 5, 1.2 mg/kg, n=2; range
Measurement Label: AUC(0-t)

> print(dat)
                                   compound  measurement.label        value.observed
1  COc1c(OCCCN2CCOCC2)ccc2c1N=C(NC(=O)c1cnc(N)nc1)N1CCN=C21 [copanlisib, Copanlisib]           AUC(0-t)  4090 to 5230 ng·h/mL

---

# Run Description: Plasma pharmacokinetics of copanlisib
# Assay type: in vivo, human
# Test Context: human, plasma, intravenous, 0.8 mg/kg, t1/2, cycle 1 day 1; NHL expansion, 0.8 mg/kg, n=8; value (%)
Measurement Label: half-life (min)

> print(dat)
                                smiles.code  measurement.label  value.observed
1  COc1c(OCCCN2CCOCC2)ccc2c1N=C(NC(=O)c1cnc(N)nc1)N1CCN=C21          half-life            2330

---

# Run Description: Plasma pharmacokinetics of copanlisib
# Type: in vivo, human
# Test Context: human, plasma, intravenous, 0.8 mg/kg, t1/2, cycle 1 day 1; cohort 4, 0.8 mg/kg, n=4; value (%)
Measurement Label: half-life (h)

> print(dat)
                                smiles.code  value.observed
1  COc1c(OCCCN2CCOCC2)ccc2c1N=C(NC(=O)c1cnc(N)nc1)N1CCN=C21            42.3

---

# Run Description: Plasma pharmacokinetics of copanlisib
# Assay type: in vivo, human
# Test Context: human, plasma, intravenous, 0.2 mg/kg, AUC(0–25), cycle 1 day 1; cohort 2, 0.2 mg/kg, n=3; geometric mean (%CV)
Measurement Label: AUC(0-t)

> print(dat)
                                   molecule  value.observed
1  COc1c(OCCCN2CCOCC2)ccc2c1N=C(NC(=O)c1cnc(N)nc1)N1CCN=C21 [copanlisib, Copanlisib]     384 ng·h/mL
